Overview of reported cell viability of combination across a group of compounds:
test system: WHIM2 (cells of a triple-negative basal-like breast cancer xenograft); assay: cell viability of combination (% of vehicle); higher = less cytotoxic; settings: 1 µM; 72 h; partner dose: 10 nM

COMPOUND: CCN1CCN(Cc2ccc(Nc3ncc(F)c(-c4cc(F)c5nc(C)n(C(C)C)c5c4)n3)nc2)CC1.CS(=O)(=O)O + CN(C)C/C=C/C(=O)Nc1cc2c(Nc3ccc(F)c(Cl)c3)ncnc2cc1O[C@H]1CCOC1
cell viability of combination: 82.2

COMPOUND: Cc1c(Cl)cccc1Nc1ccccc1C(=O)O [Tolfenamic Acid] + CN(C)C/C=C/C(=O)Nc1cc2c(Nc3ccc(F)c(Cl)c3)ncnc2cc1O[C@H]1CCOC1
cell viability of combination: 51

COMPOUND: CCCCCOc1ccc(-c2ccc(-c3ccc(C(=O)N[C@H]4C[C@@H](O)[C@@H](O)NC(=O)[C@@H]5[C@@H](O)[C@@H](C)CN5C(=O)[C@H]([C@@H](C)O)NC(=O)[C@H]([C@H](O)[C@@H](O)c5ccc(O)cc5)NC(=O)[C@@H]5C[C@@H](O)CN5C(=O)[C@H]([C@@H](C)O)NC4=O)cc3)cc2)cc1 [Anidulafungin] + CN(C)C/C=C/C(=O)Nc1cc2c(Nc3ccc(F)c(Cl)c3)ncnc2cc1O[C@H]1CCOC1
cell viability of combination: 43

COMPOUND: CC1(C)Cc2c(-c3ccccc3)c(-c3ccc(Cl)cc3)c(CC(=O)O)n2C1 [Licofelone] + CN(C)C/C=C/C(=O)Nc1cc2c(Nc3ccc(F)c(Cl)c3)ncnc2cc1O[C@H]1CCOC1
cell viability of combination: 46.8

* * *

system: WHIM30 (cells of a triple-negative basal-like breast cancer xenograft); assay: cell viability (% of vehicle); higher = less cytotoxic; settings: 10 µM; 72 h

MOLECULE: CSc1nc2cc(Oc3cccc(Cl)c3Cl)c(Cl)cc2[nH]1
MEASUREMENT_TARGET: WHIM30
cell viability: 134
//
MOLECULE: CC(C)C(=O)Nc1ccc([N+](=O)[O-])c(C(F)(F)F)c1 [Flutamide]
MEASUREMENT_TARGET: WHIM30
cell viability: 116
//
MOLECULE: CC(C)CC(NC(=O)C(CCc1ccccc1)NC(=O)CN1CCOCC1)C(=O)NC(Cc1ccccc1)C(=O)NC(CC(C)C)C(=O)C1(C)CO1 (centres undefined)
MEASUREMENT_TARGET: WHIM30
cell viability: 68.8
//
MOLECULE: CC(C)N=c1cc2n(-c3ccc(Cl)cc3)c3ccccc3nc-2cc1Nc1ccc(Cl)cc1
MEASUREMENT_TARGET: WHIM30
cell viability: 68.8

* * *

Overview of reported cell viability across a group of compounds:
system: HCI13 (cells of an ER-positive luminal breast cancer xenograft); assay: cell viability (% of vehicle); higher = less cytotoxic; conditions: 10 µM; 72 h
MEASURED_PARAMETER: cell viability

COMPOUND: CC(=O)NC(CS)C(=O)O (centres undefined)
RESULT: 97.3
//
COMPOUND: COCCc1ccc(OCC(O)CNC(C)C)cc1.COCCc1ccc(OCC(O)CNC(C)C)cc1.O=C(O)C(O)C(O)C(=O)O (centres undefined) [Metoprolol Tartrate]
RESULT: 81.4
//
COMPOUND: O=C(C1CCCCC1)N1CC(=O)N2CCc3ccccc3C2C1 (centres undefined)
RESULT: 134
//
COMPOUND: CO[C@H]1C[C@@H]2CC[C@@H](C)[C@@](O)(O2)C(=O)C(=O)N2CCCC[C@H]2C(=O)O[C@H]([C@H](C)C[C@@H]2CC[C@@H](O)[C@H](OC)C2)CC(=O)[C@H](C)/C=C(\C)[C@@H](O)[C@@H](OC)C(=O)[C@H](C)C[C@H](C)/C=C/C=C/C=C/1C [Rapamycin (Sirolimus)]
RESULT: 39.5
//
COMPOUND: Cc1cccc(Nc2ccccc2C(=O)O)c1C
RESULT: 113
//
COMPOUND: O=C1Cc2cc(CCN3CCN(c4nsc5ccccc45)CC3)c(Cl)cc2N1
RESULT: 95.4
//
COMPOUND: O=c1nc[nH]c2c1ncn2C1CCC(CO)O1 (centres undefined)
RESULT: 99.2
//
COMPOUND: Nc1ccn(C2CSC(CO)O2)c(=O)n1 (centres undefined)
RESULT: 124
//
COMPOUND: CCCCc1nc(Cl)c(CO)n1Cc1ccc(-c2ccccc2-c2nnn[n-]2)cc1.[K+]
RESULT: 82.7
//
COMPOUND: CCOc1cc2ncc(C#N)c(Nc3ccc(F)c(Cl)c3)c2cc1NC(=O)C=CCN(C)C [Pelitinib (EKB-569)]
RESULT: 34.2
//
COMPOUND: CCOC(=O)C1=C[C@]2(CC)CCCN3CCc4c(n1c1ccccc41)[C@@H]32
RESULT: 88.5
//
COMPOUND: COC(=O)N=NC=C1C=[N+]([O-])c2ccccc2N1O
RESULT: 106
//
COMPOUND: COc1ccccc1OCC(O)COC(N)=O (centres undefined)
RESULT: 109
//
COMPOUND: CN1CCC(COc2cnc(-c3cccc(Cn4nc(-c5cccc(C#N)c5)ccc4=O)c3)nc2)CC1
RESULT: 72.4
